# Read-out: Peroxisomal acyl-coenzyme A oxidase 1 (ACOX1) gene, ACOX1 (gene 51)
# Protocol Summary: LTEA_HepaRG_ACOX1: Life Technologies and Expression Analysis (LTEA) Assay for Peroxisomal acyl-coenzyme A oxidase 1 (ACOX1) gene using HepaRG (AID 2283467)
# Measurement Context: mRNA level, 48 h; actives raise or lower the signal
# Method: LTEA_HepaRG is a cell based, multiplexed-readout assay that uses HepaRG, a human liver cell line, with measurements taken at 48 hours after chemical dosing on a 96-well plate.LTEA_HepaRG_ACOX1 is one of 102 assay component(s) measured in the LTEA HepaRG cell culture assay. It is a marker of Steatosis.Data from the assay component LTEA_HepaRG_ACOX1 was analyzed into 1 endpoint. […]
Activity calls are given as the source filed them. Rule for the calls: active = hit-call score of the fitted dose curve at least 0.9, where 1 is the maximum; inactive = score below 0.9.
Classes used: active, inactive

>  <Molecule>
Cc1cccc(C)c1N

>  <Discrete Label>
inactive

$$$$
>  <Molecule>
CCC(=O)O[C@H]1CC[C@H]2[C@@H]3CCC4=CC(=O)CC[C@]4(C)[C@H]3CC[C@]12C

>  <Discrete Label>
inactive

$$$$
>  <Molecule>
COS(=O)(=O)OC

>  <Discrete Label>
inactive

$$$$
>  <Molecule>
O=C(NC(=O)c1cc(F)c(F)cc1Cl)Nc1cc(F)ccc1N1CCC(C(=O)O)CC1

>  <Discrete Label>
inactive

$$$$
>  <Molecule>
Cc1ccc(O)c(C)c1

>  <Discrete Label>
inactive

$$$$
>  <Molecule>
Cc1cc2c3c(c1)C(c1ccccc1)=N[C@@H](NC(=O)c1ccncc1)C(=O)N3CC2

>  <Discrete Label>
inactive

$$$$
>  <Molecule>
ClC1=C(Cl)[C@]2(Cl)[C@@H]3[C@@H]4C[C@@H]([C@H]5O[C@@H]45)[C@@H]3[C@@]1(Cl)C2(Cl)Cl

>  <Discrete Label>
active

$$$$
>  <Molecule>
N#Cc1ccc(N(CC(N)=O)CC(F)(F)F)cc1C(F)(F)F

>  <Discrete Label>
inactive

$$$$
>  <Molecule>
CCOCCOC(C)=O

>  <Discrete Label>
inactive

$$$$
>  <Molecule>
CCC(C)c1cc([N+](=O)[O-])cc([N+](=O)[O-])c1O (configuration not stated)

>  <Discrete Label>
active

$$$$
>  <Molecule>
Clc1ccc(Cl)cc1

>  <Discrete Label>
inactive

$$$$
>  <Molecule>
Clc1ccc(C(c2ccccc2Cl)C(Cl)(Cl)Cl)cc1 (configuration not stated)

>  <Discrete Label>
inactive

$$$$
>  <Molecule>
O=S(=O)(O)C(F)(F)C(F)(F)C(F)(F)C(F)(F)C(F)(F)C(F)(F)F

>  <Discrete Label>
active

$$$$
>  <Molecule>
CO/C=C(/C(=O)OC)c1ccccc1COc1cccc(C(F)(F)F)n1

>  <Discrete Label>
active

$$$$
>  <Molecule>
CCOC(=O)C(O)(c1ccc(Cl)cc1)c1ccc(Cl)cc1

>  <Discrete Label>
inactive

$$$$
>  <Molecule>
O=C(O)C(F)(F)C(F)(F)C(F)(F)C(F)(F)C(F)(F)C(F)(F)C(F)(F)C(F)(F)C(F)(F)F

>  <Discrete Label>
active

$$$$
>  <Molecule>
CCC(C)(c1ccc(O)cc1)c1ccc(O)cc1

>  <Discrete Label>
inactive

$$$$

###

# Read-out: Monocyte Chemoattractant Protein-1 (MCP1), CCL2 (gene 6347)
# Protocol Summary: BSK_SAg_MCP1: BioMAP Diversity Plus: SAg Assay for Monocyte Chemoattractant Protein-1 (MCP1) Biomarker Activity (AID 2283090)
# Measurement Context: primary human HUVEC with PBMC; actives raise or lower the signal
Activity calls are given as the source filed them. The calls were made as follows: active = hit-call score of the fitted dose curve at least 0.9, where 1 is the maximum; inactive = score below 0.9.

>  <Molecule>
COS(=O)(=O)OC

>  <outcome>
inactive

$$$$
>  <Molecule>
CCCN(CCC)N=O

>  <outcome>
inactive

$$$$
>  <Molecule>
O=C(N[C@H]1CN2CCC1CC2)c1cc2ccoc2cn1

>  <outcome>
inactive

$$$$

###

# Read-out: Alkaline Phosphatase, Placental (ALPP) gene, ALPP (gene 250)
# Protocol Summary: LTEA_HepaRG_ALPP: Life Technologies and Expression Analysis (LTEA) Assay for Alkaline Phosphatase, Placental (ALPP) gene using HepaRG (AID 2283468)
# Measurement Context: mRNA level, 48 h; actives raise or lower the signal
Active and inactive are the calls of the source. The calls were made as follows: active = hit-call score of the fitted dose curve at least 0.9, where 1 is the maximum; inactive = score below 0.9.
Outcome codes: active, inactive

>  <Compound>
Oc1c(Cl)c(Cl)c(Cl)c(Cl)c1Cl

>  <Discrete Label>
active

$$$$
>  <Compound>
O=C(O)C(F)(F)C(F)(F)C(F)(F)C(F)(F)C(F)(F)C(F)(F)C(F)(F)C(F)(F)C(F)(F)F

>  <Discrete Label>
active

$$$$
>  <Compound>
CCCCCCCCCC[N+](C)(C)CCCCCCCCCC

>  <Discrete Label>
active

$$$$
>  <Compound>
CCC(C)(CC)c1cc(NC(=O)c2c(OC)cccc2OC)on1

>  <Discrete Label>
inactive

$$$$
>  <Compound>
O=C(NC(=O)c1cc(F)c(F)cc1Cl)Nc1cc(F)ccc1N1CCC(C(=O)O)CC1

>  <Discrete Label>
inactive

$$$$
>  <Compound>
Cc1ccccc1CO[C@@H]1C[C@@]2(C(C)C)CC[C@]1(C)O2

>  <Discrete Label>
inactive

$$$$
>  <Compound>
CC(C)C(=O)OCC(C)(C)C(OC(=O)C(C)C)C(C)C (centres undefined)

>  <Discrete Label>
inactive

$$$$
>  <Compound>
Nc1ccc(-c2ccc(N)cc2)cc1

>  <Discrete Label>
inactive

$$$$
>  <Compound>
C=CC(N)=O

>  <Discrete Label>
inactive

$$$$
>  <Compound>
CCNc1nc(NC(C)C)nc(SC)n1

>  <Discrete Label>
active

$$$$
>  <Compound>
ClC1=C(Cl)[C@]2(Cl)[C@@H]3[C@@H](Cl)[C@H]4O[C@H]4[C@@H]3C1(Cl)C2(Cl)Cl

>  <Discrete Label>
inactive

$$$$
>  <Compound>
O=NN(c1ccccc1)c1ccccc1

>  <Discrete Label>
active

$$$$
>  <Compound>
N#Cc1ccc(N(CC(N)=O)CC(F)(F)F)cc1C(F)(F)F

>  <Discrete Label>
inactive

$$$$
>  <Compound>
CCC(C)c1cc([N+](=O)[O-])cc([N+](=O)[O-])c1O (centres undefined)

>  <Discrete Label>
active

$$$$
>  <Compound>
O=S(=O)(O)C(F)(F)C(F)(F)C(F)(F)C(F)(F)C(F)(F)C(F)(F)F

>  <Discrete Label>
inactive

$$$$
>  <Compound>
Cc1ccc(O)c(C)c1

>  <Discrete Label>
inactive

$$$$
>  <Compound>
C[C@]12CCC(=O)C=C1CC[C@@H]1[C@@H]2CC[C@]2(C)C(=O)CC[C@@H]12

>  <Discrete Label>
active

$$$$
>  <Compound>
Clc1ccc(C(c2ccccc2Cl)C(Cl)(Cl)Cl)cc1 (centres undefined)

>  <Discrete Label>
inactive

$$$$
>  <Compound>
CCOC(=O)C(O)(c1ccc(Cl)cc1)c1ccc(Cl)cc1

>  <Discrete Label>
inactive

$$$$
